Data provenance is patent US20040092720A1.

Molecular target: T1, recombinant human IL-6 (human, UniProt P05231 30-212, labeled with radioactive iodine)
T1 construct: Labeled probe in solution, added to wells that carry the synthetic peptides; also called IL-6 ligand; Interleukin-6
Test: radioiodinated IL-6 on peptide array
METRIC_NAME: Counts/minute bound (counts/minute)
One number for each entry, in counts/minute.

Please review the following examples before continuing.
ETHLETNFTLKSEWATHKFADCKA [Peptide E16] ... 1040
KSEWATHKFADCKAKRDTPTSCTV [Peptide E17] ... 1410

Read the next record carefully.
Query: Report Counts/minute bound, nothing else, for this binder: QMYSDGNFTDVSVVEIEANDKKPF [Peptide E69]
Response: 1190
